# Tested on: NCI-H226 lung
# procedure.summary: NCI-60 one-dose screen, 48 h (100 = growth as untreated, 0 = no growth, -100 = all killed)
# condition.set: 10 µM unless noted
This is part of a sample that, as a whole, favours compounds with a hit. Of some 83,000 tested, about 20% had one in any assay.
reported.endpoint: growth (%)
Numbers only, in %.

Example results:
{"compound": "Cc1c(O)cc(-c2cnc(Nc3ccccc3)s2)c(O)c1C", "units.text": "%", "quantitative.readout": 98.6}
{"compound": "COc1ccc(F)cc1/C=C/C(=O)/C=C(/C=C/c1cc(F)ccc1OC)OB(F)F", "units.text": "%", "quantitative.readout": 97.9}
{"compound": "S=c1sc2c(Cl)nc(-c3cccnc3)nc2n1-c1ccccc1", "units.text": "%", "quantitative.readout": 85.2}
{"compound": "COc1ccc(-c2cc(-c3cccnc3)nc3sc4c(=O)[nH]c(-c5ccc(Cl)cc5)nc4c23)cc1OC", "units.text": "%", "quantitative.readout": 79.1}
{"compound": "CC1=NC2=Nn3c(c4cnn(-c5ccccc5)c4n/c3=N\\N)NN2C(c2ccccc2)=C1", "units.text": "%", "quantitative.readout": 90.7}

Provide growth values for the following items, in order.
1. Cc1ccc2c(c1)=C/C(=C\c1cc(-c3ccccc3)oc1O)C(=O)N=2
2. COCCOc1cc2ncnc(N3CCN(c4ncc(S(=O)(=O)N5CCCCC5)cn4)CC3)c2cc1OCCOC
3. C=C(C)[C@@H]1CC[C@]2(C(=O)O)CC[C@]3(C)[C@H](CC[C@@H]4[C@@]5(C)CCC(NC(=O)c6cccc(OC(C)=O)c6OC(C)=O)C(C)(C)[C@@H]5CC[C@]43C)[C@@H]12 (stereo partly specified)
4. CCOC(=O)c1nn(-c2ccc(S(N)(=O)=O)cc2)c2nc(C)cc(=O)n12

Output line:
[106, 97.2, -17.4, 104]
